Recorded measurements of TGI, one per entry
- Tested on: BT-549 breast
- methodDescription: NCI tumour cell line growth inhibition, 48 h

In the examples that follow, each entry is paired with its recorded TGI.
Cc1ccn2c(=O)cc(CN3CCOCC3)nc2c1 ... > 100 µM
c1ccc2c(Cc3[nH]c4ccccc4c3Cc3c[nH]c4ccccc34)c[nH]c2c1 ... 19.5 µM
CC(=O)C1=C(C)N2C(=NC3=C(CCc4ccccc43)C2c2ccc(F)cc2)S1 (stereo unspecified) ... > 100 µM
O=C1NC(N2CCOCC2)=N/C1=C\c1ccc(Cl)cc1 ... > 100 µM
Cc1nc2ccc(Nc3nc(Cl)nc(N4CCOCC4)n3)cc2n1Cc1ccccc1 ... 29.4 µM

Please examine the following record next.
Q: # query: TGI of entry CC(C)(Br)C(=O)N1CCN(C(c2ccccc2)c2ccccc2)CC1
Result: > 100 µM
